These data points were gathered from patent US20110059889A1.

# SYSTEM_NAME: T1, soluble human FcRn (shFcRn) (human, UniProt P55899 24-297; P61769 21-119)
# T1 construct: Biotinylated for the ELISA, amine-coupled to a CM5 chip for SPR; also called biotinylated shFcRn
# RUN_DESCRIPTION: SPR pH 6
Bridge positions count the residues as written; N and C are the ends. Square brackets hold non-standard residues; d marks the D form. Ends that are not written are not given here. NMeL = CN[C@@H](CC(C)C)C(=O)O; Pen = CC(C)(S)[C@H](N)C(=O)O
Below, each entry is listed with its recorded pKd.
pKd is a log-scale quantity: -log10 of the concentration expressed in molar.

Quick one: pKd for QRF[Pen]TGHF[dF]G[NMeL]YPCNGP-NH2 (disulfide 4-14; N-terminus assumed; SMILES CC(C)C[C@H]1C(=O)N[C@@H](Cc2ccc(O)cc2)C(=O)N2CCC[C@H]2C(=O)N[C@H](C(=O)N[C@@H](CC(N)=O)C(=O)NCC(=O)N2CCC[C@H]2C(N)=O)CSSC(C)(C)[C@H](NC(=O)[C@H](Cc2ccccc2)NC(=O)[C@H](CCCNC(=N)N)NC(=O)[C@@H](N)CCC(N)=O)C(=O)N[C@@H]([C@@H](C)O)C(=O)NCC(=O)N[C@@H](Cc2c[nH]cn2)C(=O)N[C@@H](Cc2ccccc2)C(=O)N[C@H](Cc2ccccc2)C(=O)NCC(=O)N1C) [Peptide No. 153] ?
6.62
